Molecular target: human β3 adrenergic receptor (Homo sapiens, UniProt P13945)
Construct: expressed in transfected cells; host or cells: Chinese hamster ovary (CHO) cells, stably transfected
Sequence (P13945 whole entry): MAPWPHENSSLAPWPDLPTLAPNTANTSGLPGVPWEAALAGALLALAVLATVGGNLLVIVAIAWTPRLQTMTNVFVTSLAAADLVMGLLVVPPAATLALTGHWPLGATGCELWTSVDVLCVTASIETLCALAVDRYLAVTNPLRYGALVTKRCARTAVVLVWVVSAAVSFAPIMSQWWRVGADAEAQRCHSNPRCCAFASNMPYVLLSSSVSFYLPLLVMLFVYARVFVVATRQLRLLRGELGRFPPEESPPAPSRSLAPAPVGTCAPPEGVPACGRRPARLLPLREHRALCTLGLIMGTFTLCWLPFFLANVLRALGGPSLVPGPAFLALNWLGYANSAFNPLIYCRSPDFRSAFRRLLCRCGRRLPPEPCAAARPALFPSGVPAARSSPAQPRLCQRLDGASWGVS
Assay: Functional assay: cAMP production (LANCE TR-FRET) in CHO cells stably transfected with cloned β3 adrenergic receptor
Type: cell-based
Conditions: given as a range; cAMP, CHO cells; read-out: human β3 functional activity
reported endpoint: EC50

Solved cases (3 shown):
>  <smiles str>
C[C@H](NC(=O)c1ccccc1F)C(=O)Nc1ccc(C[C@@H]2CC[C@H]([C@H](O)c3ccccc3)N2)cc1

>  <EC50>
< 1 nM

$$$$
>  <smiles str>
COc1cccc(NC(=O)Nc2ccc(C[C@@H]3CC[C@H]([C@H](O)c4ccccc4)N3)cc2)c1

>  <EC50>
11 to 100 nM

$$$$
>  <smiles str>
Nc1nc(CC(=O)Nc2ccc(C[C@H]3CC[C@H]([C@H](O)c4ccccc4)N3)cc2)cs1

>  <EC50>
11 to 100 nM

$$$$

Read the next record carefully.
Query block: I'd like to know its EC50. The compound in question is Nc1nc(CC(=O)Nc2ccc(C[C@@H]3CC[C@H]([C@H](O)c4ccccc4)N3)cc2Br)cs1
Result block: 11 to 100 nM
